# ASSAY PROTOCOL: Antioxidant activity assessed as beta-carotene bleaching activity at 116 uM after 4 hrs by spectrophotometry relative to contro
# Type: functional
Calls of active or inactive are those of the source. The calls are words filed in the database; no cut-off is given here.
METRIC: Activity

1. COC(=O)[C@H](O)[C@H]1OC(=O)C(c2ccccc2)=C1O ... > 44%
2. COC(=O)/C(=C1/OC(=O)C(c2ccc(OC)cc2)=C1O)c1ccc(C(C)=O)cc1 ... Active
3. COC(=O)/C(=C1/OC(=O)C(c2ccc(OC)cc2)=C1O)c1ccccc1C(F)(F)F ... Active
4. COC(=O)/C=C1\OC(=O)C(c2ccc(OC)cc2)=C1O ... > 44%

Hello, the source for this data is ChEMBL document CHEMBL1275383, in case you need it.
